Test system: HepG2
Method Summary: drug sensitivity score (DSS) for viability; higher = more toxic; extreme values may be limits of the assay
Cond: 72 h

Smiles Structure | drug sensitivity score
CCOC(=O)n1ccn(C)c1=S | 0
O=C1C(Cl)=C(N2CCOCC2)C(=O)N1c1ccc(Cl)c(Cl)c1 | 0
O=C(/C=C/c1ccc2ccc(C(F)(F)F)cc2n1)c1ccncc1 | 2.8
CN1[C@@H]2CC[C@H]1C[C@@H](OC(c1ccc(F)cc1)c1ccc(F)cc1)C2 | 1.6
CC(C)(C(=O)O)c1ccc(C(=O)CCCN2CCC(OC(c3ccccc3)c3ccccc3)CC2)cc1 | 0
CN1[C@@H]2CC[C@H]1C[C@@H](OC(=O)N1Cc3ccccc3NC1=O)C2 | 0
CCN(c1nc(N)c(C(=O)NC(=N)N)nc1Cl)C(C)C | 1.2
COc1cc(N2CCC(N(C)C)CC2)ccc1Nc1ncc(Cl)c(Nc2ccccc2P(C)(C)=O)n1 | 9.2
O=c1cc(N2CCN(c3cccc(C(F)(F)F)c3)CC2)[nH]c(=O)n1C1CCCCC1 | 2.7
